From: patent US11566007B2

target: NRAS Q61K (Homo sapiens (Human), UniProt P01111+P62937, Q61K); experiment: Ras-Raf (BRAF RBD) disruption / FRET / MOA assay, NRAS Q61K; assay type: biochemical; conditions: NRAS Q61K; Ras-Raf disruption/FRET/MOA assay; read-out: IC50* NRAS Q61K FRET data
Sequence (P01111 whole entry Q61K, one chain of several): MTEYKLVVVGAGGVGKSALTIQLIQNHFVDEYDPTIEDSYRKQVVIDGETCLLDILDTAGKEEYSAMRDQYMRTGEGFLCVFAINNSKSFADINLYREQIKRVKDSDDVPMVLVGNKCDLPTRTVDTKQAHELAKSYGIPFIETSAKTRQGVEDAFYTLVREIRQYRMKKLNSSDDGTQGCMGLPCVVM
Kindly state IC50 for each of the entries shown.

compound	experimental target	observed property	result
C=CC(=O)N1CC[C@H](C(=O)N(C)[C@H](C(=O)N[C@H]2Cc3nc(n(C)n3)-c3ccc4c(c3)c(c(-c3cccnc3[C@H](C)OC)n4CC)CC(C)(C)COC(=O)[C@@H]3CCCN(N3)C2=O)C(C)C)C1 (atropisomer, axis not shown)	NRAS Q61K (Homo sapiens (Human), UniProt P01111+P62937, Q61K)	IC50	100 to 1000 nM

Now examine the next entry.
Enquiry: In one line, give reported IC50 of the entry CO[C@@H](C)c1ncccc1-c1c2c3cc(ccc3n1CC(F)(F)F)-c1csc(n1)C[C@H](NC(=O)CCOC1CN(C(=O)C#CC(C)(C)N(C)C)C1)C(=O)N1CCC[C@H](N1)C(=O)OCC(C)(C)C2 (atropisomer, axis not shown) .
Return: 1000 to 10000 nM

---

biological target: KRAS Q61H (Homo sapiens (Human), UniProt P01116+P62937, Q61H); experiment: Ras-Raf (BRAF RBD) disruption / FRET / MOA assay, KRAS Q61H; assay type: biochemical; conditions: Ras-Raf disruption/FRET/MOA assay; class symbols; read-out: KRAS Q61H FRET data IC50
Sequence (P01116-2 other isoform, or with tags, fused parts or gaps Q61H, one chain of several): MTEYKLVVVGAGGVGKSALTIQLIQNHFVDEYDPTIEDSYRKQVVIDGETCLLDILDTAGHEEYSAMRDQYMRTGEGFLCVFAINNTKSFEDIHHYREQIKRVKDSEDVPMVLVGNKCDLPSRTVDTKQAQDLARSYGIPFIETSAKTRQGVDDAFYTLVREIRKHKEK
observed property: IC50

molecule	IC50
CO[C@@H](C)c1ncccc1-c1c2c3cc(ccc3n1CC(F)(F)F)-c1csc(n1)C[C@H](NC(=O)CCOC1CN(C(=O)C#CC(C)(C)N(C)C)C1)C(=O)N1CCC[C@H](N1)C(=O)OCC(C)(C)C2 (atropisomer, axis not shown) [Example A380]	1000 to 10000 nM
C=CC(=O)N1CCC2(CC1)CCN2C(=O)N(C)[C@H](C(=O)N[C@H]1Cc2nc(cs2)-c2ccc3c(c2)c(c(-c2cccnc2[C@H](C)OC)n3CC)CC(C)(C)COC(=O)[C@@H]2CCCN(N2)C1=O)C(C)C (atropisomer, axis not shown) [Example A678]	10 to 100 nM
C=CC(=O)N(C)C1CN(C(=O)N(C)[C@H](C(=O)N[C@H]2Cc3nc(cs3)-c3ccc4c(c3)c(c(-c3cccnc3[C@H](C)OC)n4CC)CC(C)(C)COC(=O)[C@@H]3CCCN(N3)C2=O)C(C)C)C1 (atropisomer, axis not shown) [Example A463]	10 to 100 nM
CCn1c(-c2cccnc2[C@H](C)OC)c2c3cc(ccc31)C1=CCCN(C1)C[C@H](NC(=O)[C@@H](COC1CN(C(=O)C#CC(C)(C)N(C)C)C1)C(C)C)C(=O)N1CCC[C@H](N1)C(=O)OCC(C)(C)C2 (atropisomer, axis not shown) [Example A663]	> 10000 nM
C=CC(=O)N1CCO[C@H]2CCN(C(=O)N(C)[C@H](C(=O)N[C@H]3Cc4nc(cs4)-c4ccc5c(c4)c(c(-c4cccnc4[C@H](C)OC)n5CC)CC(C)(C)COC(=O)[C@@H]4CCCN(N4)C3=O)C(C)C)C[C@H]21 (atropisomer, axis not shown) [Example A580]	10 to 100 nM

Hey, quick one: what's IC50 for each of these?
1. C=CC(=O)N1CC[C@@]2(CCN(C(=O)N(C)[C@H](C(=O)N[C@H]3Cc4nc(cs4)-c4ccc5c(c4)c(c(-c4cccnc4[C@H](C)OC)n5CC)CC(C)(C)COC(=O)[C@@H]4CCCN(N4)C3=O)C(C)C)C2)C1 (atropisomer, axis not shown) [Example A367]
2. C=CC(=O)N1CC[C@H](C(=O)N(C)[C@H](C(=O)N[C@H]2Cc3cc(O)cc(c3)-c3ccc4c(c3)c(c(-c3cncs3)n4CC)CC(C)(C)COC(=O)[C@@H]3CCCN(N3)C2=O)C(C)C)C1 [Example A143]
3. CCn1c(-c2cccnc2[C@H](C)OC)c2c3cc(ccc31)-c1csc(n1)C[C@H](NC(=O)[C@H](F)COC1CN(C(=O)C#CC(C)(C)N(C)C)C1)C(=O)N1CCC[C@H](N1)C(=O)OCC(C)(C)C2 (atropisomer, axis not shown) [Example A627]

Return:
1: 10 to 100 nM; 2: 1000 to 10000 nM; 3: 1000 to 10000 nM

---

Target: K-Ras G12C (Homo sapiens (Human), UniProt P01116+P62937, G12C)
Sequence (P01116-2 other isoform, or with tags, fused parts or gaps G12C, one chain of several): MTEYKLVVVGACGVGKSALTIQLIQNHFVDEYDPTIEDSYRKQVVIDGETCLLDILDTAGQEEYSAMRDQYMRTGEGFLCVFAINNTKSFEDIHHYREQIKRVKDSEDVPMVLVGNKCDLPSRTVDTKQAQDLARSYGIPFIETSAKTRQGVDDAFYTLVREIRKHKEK
Assay: Ras-Raf (BRAF RBD) disruption / FRET / MOA assay, KRAS G12C
Assay type: biochemical
Conditions: KRAS G12C; Ras-Raf disruption/FRET/MOA assay; read-out: IC50* KRAS G12C FRET data
Procedure: The purpose of this biochemical assay is to measure the ability of test compounds to facilitate ternary complex formation between a nucleotide-loaded Ras isoform and cyclophilin A; the resulting ternary complex disrupts binding to a BRAF^RBD construct, inhibiting Ras signaling through a RAF effector. Compound is present in plate wells as a 10-point 3-fold dilution series starting at a final concentration of 30 μM. […]
observed property: IC50

See these solved cases before continuing.
compound	result
C=CC(=O)N1CC[C@H](C(=O)N(C)[C@H](C(=O)N[C@H]2Cc3cccc(c3F)-c3ccc4c(c3)c(c(-c3cccnc3[C@H](C)OC)n4CC)CC(C)(C)COC(=O)[C@@H]3CCCN(N3)C2=O)C(C)C)C1 (atropisomer, axis not shown)	0.1 to 1 µM
C=CC(=O)N1CC[C@H](C(=O)N(C)[C@H](C(=O)N[C@H]2Cc3cc(N)cc(c3)-c3ccc4c(c3)c(c(-c3ccccc3CCOC)n4CC)CC(C)(C)COC(=O)[C@@H]3CCCN(N3)C2=O)C(C)C)C1	1 to 10 µM
CCn1c(-c2cccnc2[C@H](C)OC)c2c3cc(ccc31)C1=CCCN(C1)C[C@H](NC(=O)[C@@H](COC1CN(C(=O)C#CC(C)(C)N(C)C)C1)C(C)C)C(=O)N1CCC[C@H](N1)C(=O)OCC(C)(C)C2 (atropisomer, axis not shown)	< 0.01 µM
CCn1c(-c2cccnc2COC)c2c3cc(ccc31)-c1cc(O)cc(c1)C[C@H](NC(=O)[C@H](C(C)C)N(C)C(=O)[C@H]1CCN(C(=O)C#CCCN3CCOCC3)C1)C(=O)N1CCC[C@H](N1)C(=O)OCC(C)(C)C2	< 0.01 µM
C=CC(=O)N1CC[C@]2(C1)OCN([C@H](C(=O)N[C@H]1Cc3cccc(c3)-c3ccc4c(c3)c(c(-c3cccnc3[C@H](C)OC)n4CC)CC(C)(C)COC(=O)[C@@H]3CCCN(N3)C1=O)C(C)C)C2=O (atropisomer, axis not shown)	0.01 to 0.1 µM
C=CC(=O)N1CCO[C@@H]2CCN(C(=O)N(C)[C@H](C(=O)N[C@H]3Cc4nc(cs4)-c4ccc5c(c4)c(c(-c4cccnc4[C@H](C)OC)n5CC)CC(C)(C)COC(=O)[C@@H]4CCCN(N4)C3=O)C(C)C)CC21 (some centres unmarked)	0.01 to 0.1 µM
C=CC(=O)N1CC[C@]2(COCCN2C(=O)N(C)[C@H](C(=O)N[C@H]2Cc3nc(cs3)-c3ccc4c(c3)c(c(-c3cccnc3[C@H](C)OC)n4CC)CC(C)(C)COC(=O)[C@@H]3CCCN(N3)C2=O)C(C)C)C1 (atropisomer, axis not shown)	0.1 to 1 µM

Now examine the next entry.
Enquiry: Provide the reported IC50 (system: K-Ras G12C (Homo sapiens (Human), UniProt P01116+P62937, G12C)) for C=CC(=O)N(C)C[C@@H]1CCN1C(=O)N(C)[C@H](C(=O)N[C@H]1Cc2nc(cs2)-c2ccc3c(c2)c(c(-c2cccnc2[C@H](C)OC)n3CC)CC(C)(C)COC(=O)[C@@H]2CCCN(N2)C1=O)C(C)C (atropisomer, axis not shown)
Return: 0.1 to 1 µM

---

molecular target: KRAS WT (Homo sapiens (Human), UniProt P01116+P62937); experiment: Ras-Raf (BRAF RBD) disruption / FRET / MOA assay, KRAS WT; format: biochemical; details: read-out: IC50* KRAS WT FRET data
Sequence (P01116-2 other isoform, or with tags, fused parts or gaps): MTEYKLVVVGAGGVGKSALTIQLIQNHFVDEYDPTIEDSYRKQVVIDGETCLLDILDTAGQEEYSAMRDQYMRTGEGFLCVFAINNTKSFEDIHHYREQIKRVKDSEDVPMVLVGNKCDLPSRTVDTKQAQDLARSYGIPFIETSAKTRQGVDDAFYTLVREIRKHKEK
Sequence (P62937 whole entry): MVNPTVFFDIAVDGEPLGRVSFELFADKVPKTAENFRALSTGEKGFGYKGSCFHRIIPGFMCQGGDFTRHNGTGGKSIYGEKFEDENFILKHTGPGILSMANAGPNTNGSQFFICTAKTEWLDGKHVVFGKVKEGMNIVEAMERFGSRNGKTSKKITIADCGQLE
pIC50: −log10 of the molar value.
Kindly state pIC50 for each of the entries shown.

See these solved cases before continuing.
molecule	observed property	result
C=CC(=O)N1CC[C@H](C(=O)N(C)[C@H](C(=O)N[C@H]2Cc3cc(O)cc(c3)-c3ccc4c(c3)c(c(-c3cncs3)n4CC)CC(C)(C)COC(=O)[C@@H]3CCCN(N3)C2=O)C(C)C)C1	pIC50	< 5.00
C=CC(=O)N1CCOC2(CCN(C(=O)N(C)[C@H](C(=O)N[C@H]3Cc4cccc(n4)-c4ccc5c(c4)c(c(-c4cccnc4[C@H](C)OC)n5CC(F)(F)F)CC(C)(C)COC(=O)[C@@H]4CCCN(N4)C3=O)C(C)C)CC2)C1 (atropisomer, axis not shown)	pIC50	6.00 to 7.00
C=CC(=O)N1C[C@H](C)N(C(=O)N(C)[C@H](C(=O)N[C@H]2Cc3nc(cs3)-c3ccc4c(c3)c(c(-c3cccnc3[C@H](C)OC)n4CC)CC(C)(C)COC(=O)[C@@H]3CCCN(N3)C2=O)C(C)C)C[C@H]1C (atropisomer, axis not shown)	pIC50	6.00 to 7.00
C=CC(=O)N1CCC2(C1)OCN([C@H](C(=O)N[C@H]1Cc3cccc(c3)-c3ccc4c(c3)c(c(-c3cccnc3[C@H](C)OC)n4CC)CC(C)(C)COC(=O)[C@@H]3CCCN(N3)C1=O)C(C)C)C2=O (some centres unmarked)	pIC50	5.00 to 6.00
CCn1c(-c2cccnc2[C@H](C)OC)c2c3cc(ccc31)-c1csc(n1)C[C@H](NC(=O)CCOC1CN(C(=O)C#CC(C)(C)N(C)C)C1)C(=O)N1CCC[C@H](N1)C(=O)OCC(C)(C)C2 (atropisomer, axis not shown)	pIC50	5.00 to 6.00

Hey, quick one: what's pIC50 for each of these?
1. CCn1c(-c2cccnc2[C@H](C)OC)c2c3cc(ccc31)-c1cccc(c1)C[C@H](NC(=O)[C@H](C(C)C)N(C)C(=O)[C@H]1CCN(C(=O)/C=C/C(F)F)C1)C(=O)N1CCC[C@H](N1)C(=O)OCC(C)(C)C2 (atropisomer, axis not shown)
2. C=CC(=O)N1CC[C@@]2(C1)CN(C(=O)N(C)[C@H](C(=O)N[C@H]1Cc3nc(cs3)-c3ccc4c(c3)c(c(-c3cccnc3[C@H](C)OC)n4CC)CC(C)(C)COC(=O)[C@@H]3CCCN(N3)C1=O)C(C)C)CCO2 (atropisomer, axis not shown)

Return:
["5.00 to 6.00", "6.00 to 7.00"]

Enquiry: In one line, give reported pIC50 of the entry C=CC(=O)N1CCC[C@]12CCN(C(=O)N(C)[C@H](C(=O)N[C@H]1Cc3nc(cs3)-c3ccc4c(c3)c(c(-c3cccnc3[C@H](C)OC)n4CC)CC(C)(C)COC(=O)[C@@H]3CCCN(N3)C1=O)C(C)C)C2 (atropisomer, axis not shown) .
Return: 6.00 to 7.00
